- test.name: Inhibition of NS5A in HCV genotype 1a H77 infected in human HuH7 replicon cells assessed as reduction in viral replication after 3 days by luciferase reporter gene assay
pEC50: −log10 of the molar value.
endpoint.name: pEC50

1) COC[C@H]1C[C@@H](c2ncc(-c3ccc4c(c3)COc3cc5c(ccc6nc([C@@H]7CCCN7C(=O)[C@@H](NC(=O)OC)C(C)C)[nH]c65)cc3-4)[nH]2)N(C(=O)[C@H](NC(=O)OC)c2ccccc2)C1 ... 10.96
2) COC(=O)N[C@H](C(=O)N1C[C@@H](C)C[C@H]1c1nc2ccc3cc4c(cc3c2[nH]1)OCc1cc(-c2cnc([C@@H]3C[C@H](C)CN3C(=O)[C@H](NC(=O)OC)c3ccccc3)[nH]2)ccc1-4)C(C)C ... 10.48
3) COC[C@H]1C[C@@H](c2nc3ccc4cc5c(cc4c3[nH]2)OCc2cc(-c3cnc([C@@H]4C[C@H](C)CN4C(=O)[C@@H](NC(=O)OC)C(C)C)[nH]3)ccc2-5)N(C(=O)[C@@H](NC(=O)OC)C(C)C)C1 ... 10.85
4) COC(=O)N[C@H](C(=O)N1CC2(CC2)C[C@H]1c1nc(-c2ccc3c(c2)C(F)(F)c2cc(-c4ccc5[nH]c([C@@H]6[C@H]7CC[C@H](C7)N6C(=O)[C@@H](NC(=O)OC)C(C)C)nc5c4)ccc2-3)c[nH]1)C(C)C [CHEBI:85089] ... 10.51

---

- test.name: Inhibition of NS5A in HCV genotype 2a JFH1 (L31) infected in human HuH7 replicon cells assessed as reduction in viral replication after 3 days by luciferase reporter gene assay
pEC50: −log10 of the molar value.
Quick rule: pEC50 of at least 10 means TRUE, below that means FALSE.

1) COC(=O)N[C@@H](C(=O)N1CCC[C@H]1c1ncc(-c2cc3c4c(c2)OCc2cc(-c5cnc([C@@H]6CCCN6C(=O)[C@H](NC(=O)OC)c6ccccc6)[nH]5)cc(c2-4)OC3)[nH]1)c1ccccc1 ... TRUE
2) COC(=O)N[C@H](C(=O)N1CCC[C@H]1c1ncc(-c2ccc3c4ccc(-c5cnc([C@@H]6CCCN6C(=O)[C@@H](NC(=O)OC)C(C)C)[nH]5)cc4c4ccccc4c3c2)[nH]1)C(C)C ... TRUE
3) COC(=O)N[C@H](C(=O)N1CCC[C@H]1c1ncc(-c2ccc3c4ccc(-c5cnc([C@@H]6CCCN6C(=O)[C@@H](NC(=O)OC)C(C)C)[nH]5)cc4c4nc5ccccc5nc4c3c2)[nH]1)C(C)C ... FALSE
4) COC(=O)NC(C(=O)N1CCC[C@H]1c1ncc(-c2cc3c4c(c2)OCc2cc(-c5cnc([C@@H]6CCCN6C(=O)[C@@H](NC(=O)OC)C(C)C)[nH]5)cc(c2-4)OC3)[nH]1)c1cccnc1 (stereo partly drawn) ... TRUE
5) COC(=O)N[C@H](C(=O)N1CCC[C@H]1c1ncc(-c2cc3c4c(c2)OCc2cc(-c5cnc([C@@H]6CCCN6C(=O)[C@@H](NC(=O)OC)[C@@H](C)OC)[nH]5)cc(c2-4)OC3)[nH]1)C(C)C ... TRUE
6) COC(=O)N[C@H](C(=O)N1CCC[C@H]1c1ncc(-c2cc3c4c(c2)OCc2cc(-c5cnc([C@@H]6CCCN6C(=O)[C@H](NC(=O)OC)c6ccccc6)[nH]5)cc(c2-4)OC3)[nH]1)C(C)C ... TRUE
